# measurementProtocol: CCTE_Shafer_MEA_acute_cross_correlation_HWHM: CCTE's Neural Acute Assay for Cross Correlation at Half Width at Half Maximum, Shafer Lab (AID 2284026);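 further: percent change per well from pre-dose baseline in spike cross-correlogram half width; hits are a decrease in cross-correlogram half width relative to DMSO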
Activity calls are given as the source filed them. How the source made its calls: active means hit-call score of the fitted dose curve at least 0.9, where 1 is the maximum; inactive means score below 0.9.
Possible outcomes: Y = active, N = inactive

INSERT INTO results (compound, classassignment) VALUES
  ('CCc1ccc(CCOc2ccc(CC3SC(=O)NC3=O)cc2)nc1 (stereo not drawn)', 'N'),
  ('O=C(O)c1ccccc1C(c1ccc(O)cc1)c1ccc(O)cc1', 'N'),
  ('Oc1cc2ccccc2c2ccccc12', 'N'),
  ('NC(=O)N(O)[C@@H]1C=C[C@H](Oc2cccc(Oc3ccc(F)cc3)c2)C1', 'Y'),
  ('CCC(=C(c1ccc(O)cc1)c1ccc(OCCN(C)C)cc1)c1ccccc1', 'N'),
  ('OC1CCC(C2CCCCC2)CC1 (stereo not drawn)', 'Y'),
  ('Cc1cc(CCN2CCN(c3nsc4ccccc34)CC2)cc2c1NC(=O)CC2(C)C', 'Y'),
  ('O=c1c(-c2ccc(O)cc2)coc2cc(O)ccc12', 'Y'),
  ('CC(C)(C)c1cc(C(C)(C)C)c(O)c(C(C)(C)C)c1', 'N'),
  ('CN(C)C=O', 'N'),
  ('CCCCCCCCCCCCc1ccccc1S(=O)(=O)O', 'N'),
  ('CC(=O)NC1(c2cccc(F)c2)CCN(CC[C@@]2(c3ccc(Cl)c(Cl)c3)CN(c3ccccc3)C(=O)CO2)CC1', 'Y'),
  ('CN1CCN(c2ccccc2/C=C2\SCCN(c3ccc(Cl)c(Cl)c3)C2=O)CC1', 'Y');

* * *

# measurementProtocol: APR_HepG2_MitoticArrest_24hr: Apredica 24-hour HepG2 Assay for Mitotic Arrest (AID 2282910)
# conditions: high-content imaging, actives raise or lower the signal
The source made the active and inactive calls. The calls were made as follows: active = hit-call score of the fitted dose curve at least 0.9, where 1 is the maximum; inactive = score below 0.9.
Possible outcomes: 1 for active, -1 for inactive

INSERT INTO assay_data (molecule, classassignment) VALUES
  ('Cc1cc(C)c(O)c(C)c1', -1),
  ('OCCC(F)(F)C(F)(F)C(F)(F)C(F)(F)C(F)(F)C(F)(F)C(F)(F)C(F)(F)F', 1),
  ('NC(=O)N1C(=O)C(C(=O)c2cc(Cl)cs2)c2cc(F)c(Cl)cc21 (configuration not stated)', 1),
  ('c1ccc2c(c1)ccc1ccccc12', -1),
  ('COCC(C)O (configuration not stated)', -1),
  ('COc1cc(CCC(=O)CC(=O)CCc2ccc(O)c(OC)c2)ccc1O', -1),
  ('Oc1cc2ccccc2c2ccccc12', 1),
  ('CCCCCCCCCCCCCCCS(=O)(=O)Oc1ccccc1', -1),
  ('O=C(OCCOCCOC(=O)c1ccccc1)c1ccccc1', -1),
  ('CC(O)CO (configuration not stated)', -1),
  ('CCc1nn(C2CCCCC2)c2cc(C3(C#N)CCC(C(=O)O)CC3)ccc12 (configuration not stated)', -1),
  ('OC1CCC(C2CCCCC2)CC1 (configuration not stated)', -1),
  ('N#C[C@@H]1CC(F)(F)CN1C(=O)CNC1CC2CCC(C1)N2c1ncccn1 (some centres not stated)', -1),
  ('COc1ccc([N+](=O)[O-])cc1N', -1),
  ('CC(C)(C)c1ccc(O)c(C(C)(C)C)c1', -1),
  ('C#C[C@]1(O)CC[C@H]2[C@@H]3CCC4=CC(=O)CC[C@@H]4[C@H]3CC[C@@]21C', -1),
  ('CCCCC(CC)COC(=O)CCCCC(=O)OCC(CC)CCCC (configuration not stated)', -1),
  ('CCCCCCC(=O)O', -1),
  ('CC1=C(/C=C/C(C)=C/C=C/C(C)=C/C(=O)O)C(C)(C)CCC1', 1),
  ('CCCCCCCC(=O)O', -1),
  ('Cc1oc(-c2ccccc2)nc1CCOc1ccc(C[C@H](Nc2ccccc2C(=O)c2ccccc2)C(=O)O)cc1', 1),
  ('CCN(CC)CCNc1ccc(CNC=O)c2sc3ccc(OC)cc3c(=O)c12', 1),
  ('c1ccc2cc3c(ccc4ccccc43)cc2c1', 1),
  ('CN(C)C=O', -1),
  ('O=C(/C=C/c1ccc(O)cc1)CC(=O)/C=C/c1ccc(O)cc1', 1),
  ('Oc1cccc(O)c1', -1),
  ('CCCCCCCCCCCCc1ccccc1S(=O)(=O)O', 1);
